assay: ATG_CMV_CIS: Attagene CIS-FACTORIAL HepG2 Assay for human CMV (Internal Marker) (AID 2282928); settings: HepG2 CMV promoter reporter, transcription factor profiling; actives raise or lower the signal;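 also: endpoint acts as a background internal control marker rather than a target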
Calls of active or inactive are those of the source. The calls were made as follows: active = hit-call score of the fitted dose curve at least 0.9, where 1 is the maximum; inactive = score below 0.9.
Choose one outcome from this list and give only that: active, inactive

See these solved cases before continuing.
INSERT INTO measurements (compound, class) VALUES
  ('CC(=O)Nc1ccc(N=Nc2cc(C)ccc2O)cc1', 'inactive'),
  ('O=S(=O)(O)C(F)(F)C(F)(F)C(F)(F)C(F)(F)C(F)(F)C(F)(F)C(F)(F)F', 'inactive'),
  ('CC(Cc1ccc(O)c(O)c1)C(C)Cc1ccc(O)c(O)c1 (stereo not drawn)', 'inactive'),
  ('C=C(C)C(=O)OCC(F)(F)C(F)(F)C(F)(F)F', 'inactive'),
  ('O[Si](c1ccccc1)(c1ccccc1)c1ccccc1', 'inactive'),
  ('CCCCCCS', 'inactive'),
  ('OCCCC(F)(F)C(F)(F)C(F)(F)C(F)(F)C(F)(F)C(F)(F)C(F)(F)F', 'inactive'),
  ('O=C(O)C(F)(F)C(F)(F)F', 'inactive');

Task: Hi, do you know how "c1ccc(B(c2ccccc2)c2ccccc2)cc1" came out in this test?
Result: active

Task: Hi, do you know how "CCN(CC)c1ccc2c(C)cc(=O)oc2c1" came out in this test?
Result: active

All figures here come from PubChem BioAssay (EPA / NIEHS).
